Test: Toxicokinetics after oral administration in mice
Assay type: in vivo
Conditions: mouse; male ICR mice, oral gavage 10 mg/kg, plasma elimination half-life, mean ± SD, n = 7
Observation type: half-life
Please answer using the number first and the unit second.

QUERY: Recall and state the measured half-life for CC[C@H](C)[C@@H]1NC(=O)CNC(=O)[C@@H]2Cc3c([nH]c4cc(O)ccc34)[S@+]([O-])C[C@H](NC(=O)CNC1=O)C(=O)N[C@@H](CC(=O)O)C(=O)N1C[C@H](O)C[C@H]1C(=O)N[C@@H]([C@@H](C)[C@@H](O)CO)C(=O)N2 [β-amanitin] .
RESULT: 2.17 h

* * *

Experiment: Toxicokinetics after oral administration in mice
Type: in vivo
Settings: mouse; male ICR mice, oral gavage 2 mg/kg, plasma, LC-HRMS, non-compartmental, mean ± SD, n = 7
Observation type: AUC(0-t) (ng·h/mL)
Respond with the bare value in ng·h/mL.

QUERY: Recall and state the measured AUC(0-t) for CC[C@H](C)[C@@H]1NC(=O)CNC(=O)[C@@H]2Cc3c([nH]c4cc(O)ccc34)[S@+]([O-])C[C@H](NC(=O)CNC1=O)C(=O)N[C@@H](CC(=O)O)C(=O)N1C[C@H](O)C[C@H]1C(=O)N[C@@H]([C@@H](C)[C@@H](O)CO)C(=O)N2 [β-amanitin] .
RESULT: 181
